molecular target: recombinant RORγ Ligand Binding Domain (LBD) (Homo sapiens (Human)); experiment: Radio-Ligand RORγ Binding Assay (Assay 1); conditions: SPA competition with 25-hydroxy [26,27-3H]-cholesterol, cell-free; read-out: RORγ Binding Ki Range
Sequence (P51449 269-508): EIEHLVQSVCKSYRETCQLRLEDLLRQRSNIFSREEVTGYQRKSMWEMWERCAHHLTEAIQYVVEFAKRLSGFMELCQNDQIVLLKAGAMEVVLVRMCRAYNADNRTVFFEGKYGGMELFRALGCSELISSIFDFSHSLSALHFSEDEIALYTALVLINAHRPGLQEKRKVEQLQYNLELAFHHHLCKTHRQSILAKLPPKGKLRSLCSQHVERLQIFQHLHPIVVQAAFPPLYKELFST
pKi: −log10 of the molar value.
Measured pKi, listed per entry.

>>> print(df.to_string())
                                   molecule  assay_result
0  CCS(=O)(=O)c1ccc(CNC(=O)c2cnc3c(c2)[C@@H](C)N(Cc2ccc(Cl)cc2)[C@H]3C(C)C)cc1        > 7.00
1  CC(C)[C@@H]1c2ncc(C(=O)NCc3ccc(S(C)(=O)=O)cc3)cc2CN1Cc1ccc(Cl)cc1        < 6.00
2  CC(=O)N1CCC(CNC(=O)c2cnc3c(c2)CN(Cc2ccc(C(F)(F)F)cc2)[C@H]3C(C)C)CC1        < 6.00
3  CC(C)[C@H]1c2ncc(C(=O)NCCC3CCS(=O)(=O)CC3)cc2CN1Cc1ccc(C(F)(F)F)cc1        < 6.00
4  CC(C)[C@H]1c2ncc(C(=O)NCCC3CN(S(C)(=O)=O)C3)cc2CN1Cc1ccc(C(F)(F)F)cc1        < 6.00

Exam item: Which pKi is listed for CC(C)[C@H]1c2ncc(C(=O)NCCCN3CCCC3=O)cc2CN1Cc1ccc(C(F)(F)F)cc1 ?
Marked response: < 6.00

Exam item: Which pKi is listed for CCS(=O)(=O)c1cnc(CNC(=O)c2cnc3c(c2)CN(Cc2ccc(C(F)(F)F)cc2)[C@H]3C(C)C)c(F)c1 ?
Marked response: > 7.00

Exam item: Which pKi is listed for CCS(=O)(=O)c1ccc(CNC(=O)c2cnc3c(c2)CN(C(=O)OCc2ccc(Cl)cc2)[C@H]3C(C)C)cc1 ?
Marked response: > 7.00

Exam item: Which pKi is listed for CCS(=O)(=O)c1ccc(CNC(=O)c2cnc3c(c2)[C@H](C)N(Cc2ccc(C(F)(F)F)cc2)[C@H]3C(C)C)cc1 ?
Marked response: > 7.00

Exam item: Which pKi is listed for CC(C)[C@H]1c2ncc(C(=O)NCC3CCN(C(=O)OC(C)(C)C)C3)cc2CN1Cc1ccc(C(F)(F)F)cc1 (some centres unmarked) ?
Marked response: < 6.00

Exam item: Which pKi is listed for COC(=O)CC1(CNC(=O)c2cnc3c(c2)CN(Cc2ccc(C(F)(F)F)cc2)[C@H]3C(C)C)CCCCC1 ?
Marked response: < 6.00

Exam item: Which pKi is listed for CC(C)[C@H]1c2ncc(C(=O)NCCCn3ccnc3)cc2CN1Cc1ccc(C(F)(F)F)cc1 ?
Marked response: < 6.00

Exam item: Which pKi is listed for CC(C)[C@H]1c2ncc(C(=O)NCC(F)(F)F)cc2CN1Cc1ccc(C(F)(F)F)cc1 ?
Marked response: < 6.00

Exam item: Which pKi is listed for CCS(=O)(=O)c1ccc(CNC(=O)c2cnc3c(c2)CN(CC2CCC(F)(F)CC2)[C@H]3C(C)C)cc1 ?
Marked response: > 7.00

Exam item: Which pKi is listed for CC(C)[C@H]1c2ncc(C(=O)N[C@H]3c4ccccc4C[C@H]3O)cc2CN1Cc1ccc(C(F)(F)F)cc1 [Compound 130] ?
Marked response: < 6.00

Exam item: Which pKi is listed for CC(C)[C@@H]1c2ncc(C(=O)NCc3ccc(S(C)(=O)=O)cc3)cc2CN1Cc1ccc(C#N)cc1 ?
Marked response: < 6.00

Exam item: Which pKi is listed for CC(C)[C@H]1c2ncc(C(=O)NCc3ccc(S(C)(=O)=O)cc3)cc2CN1Cc1ccc(Cl)cc1 ?
Marked response: > 7.00

Exam item: Which pKi is listed for CC(C)[C@H]1c2ncc(C(=O)NCC3(C(=O)O)CCOCC3)cc2CN1Cc1ccc(C(F)(F)F)cc1 ?
Marked response: < 6.00

Exam item: Which pKi is listed for CC(C)NC(=O)c1cnc2c(c1)CN(Cc1ccc(C(F)(F)F)cc1)[C@H]2C(C)C ?
Marked response: < 6.00

Exam item: Which pKi is listed for CC(C)[C@H]1c2ncc(C(=O)NCc3ccc(S(C)(=O)=O)cc3)cc2CN1Cc1ccc(C(F)(F)F)cn1 ?
Marked response: 6.00 to 7.00

Exam item: Which pKi is listed for COC(=O)[C@H]1CC[C@H](CNC(=O)c2cnc3c(c2)CN(Cc2ccc(C(F)(F)F)cc2)[C@H]3C(C)C)CC1 ?
Marked response: < 6.00

Exam item: Which pKi is listed for CC(C)[C@H]1c2ncc(C(=O)NC(CC(=O)O)c3ccc(Br)cc3)cc2CN1Cc1ccc(C(F)(F)F)cc1 (some centres unmarked) ?
Marked response: < 6.00
